Numbers sourced from ChEMBL document CHEMBL5352412.

measuredOn: DNA topoisomerase 2-alpha (Homo sapiens, UniProt P11388)
Sequence (P11388 whole entry): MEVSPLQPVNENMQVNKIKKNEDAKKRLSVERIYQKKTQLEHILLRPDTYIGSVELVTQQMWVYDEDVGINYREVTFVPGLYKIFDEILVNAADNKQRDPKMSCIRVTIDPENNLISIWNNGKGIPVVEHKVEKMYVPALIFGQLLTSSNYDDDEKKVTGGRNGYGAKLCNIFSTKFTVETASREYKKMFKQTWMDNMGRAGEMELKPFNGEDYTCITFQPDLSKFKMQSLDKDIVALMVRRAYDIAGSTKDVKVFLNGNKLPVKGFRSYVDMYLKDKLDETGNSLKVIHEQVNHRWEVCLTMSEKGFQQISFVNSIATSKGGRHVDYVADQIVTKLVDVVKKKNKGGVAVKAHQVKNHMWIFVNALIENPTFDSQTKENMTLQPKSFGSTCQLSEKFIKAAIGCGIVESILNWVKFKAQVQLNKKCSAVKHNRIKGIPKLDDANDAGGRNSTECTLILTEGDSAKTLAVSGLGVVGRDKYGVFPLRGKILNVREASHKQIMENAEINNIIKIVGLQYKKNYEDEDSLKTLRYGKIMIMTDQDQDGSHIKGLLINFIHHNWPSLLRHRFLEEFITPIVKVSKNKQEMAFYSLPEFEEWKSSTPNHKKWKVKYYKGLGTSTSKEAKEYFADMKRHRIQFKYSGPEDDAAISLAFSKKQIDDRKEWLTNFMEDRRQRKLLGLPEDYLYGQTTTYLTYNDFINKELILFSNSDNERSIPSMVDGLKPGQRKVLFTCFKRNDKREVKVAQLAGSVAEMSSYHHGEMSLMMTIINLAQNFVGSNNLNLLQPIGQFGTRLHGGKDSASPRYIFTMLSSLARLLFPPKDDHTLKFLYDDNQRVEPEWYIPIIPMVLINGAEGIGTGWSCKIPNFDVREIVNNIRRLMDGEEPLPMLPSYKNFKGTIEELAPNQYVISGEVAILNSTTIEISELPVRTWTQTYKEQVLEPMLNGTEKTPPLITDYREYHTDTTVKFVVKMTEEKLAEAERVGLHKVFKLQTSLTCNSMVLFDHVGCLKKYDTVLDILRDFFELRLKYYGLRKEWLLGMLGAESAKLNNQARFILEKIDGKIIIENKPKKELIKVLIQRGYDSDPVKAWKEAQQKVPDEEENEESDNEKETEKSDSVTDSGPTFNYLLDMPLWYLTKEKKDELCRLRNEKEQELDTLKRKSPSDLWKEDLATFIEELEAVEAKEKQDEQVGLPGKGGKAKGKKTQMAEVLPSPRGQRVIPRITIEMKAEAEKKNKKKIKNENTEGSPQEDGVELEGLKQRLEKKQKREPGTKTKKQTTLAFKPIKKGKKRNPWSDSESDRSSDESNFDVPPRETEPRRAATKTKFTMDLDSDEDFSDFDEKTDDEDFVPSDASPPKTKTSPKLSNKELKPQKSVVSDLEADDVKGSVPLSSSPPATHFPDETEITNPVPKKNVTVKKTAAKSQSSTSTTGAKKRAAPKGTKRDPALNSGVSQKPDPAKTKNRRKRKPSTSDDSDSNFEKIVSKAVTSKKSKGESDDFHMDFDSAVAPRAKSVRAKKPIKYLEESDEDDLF
protocolDetails: Inhibition of human topoisomerase 2-alpha assessed as reduction in relaxation of pBR322 DNA at 25 uM measured after 30 mins by agarose gel electrophoresis method relative to control
measuredProperty: inhibition (%)

[[record]]
structuresmilesstring = "CNC(=O)/C=C/c1ccc(/C=C/c2cc(O)cc(O)c2)cc1"
measuredproperty = "inhibition"
numericresult = 2.3

[[record]]
structuresmilesstring = "O=C(/C=C/c1ccccc1)Nc1ccc(NC(=O)c2cc(O)cc(O)c2)cc1"
measuredproperty = "inhibition"
numericresult = 27.1

[[record]]
structuresmilesstring = "NC(=O)/C=C/c1ccc(/C=C/c2cc(O)cc(O)c2)cc1"
measuredproperty = "inhibition"
numericresult = 3.9

[[record]]
structuresmilesstring = "Oc1cc(O)cc(/C=C/c2ccc(O)c(-c3ccsc3)c2)c1"
measuredproperty = "inhibition"
numericresult = 15.2

[[record]]
structuresmilesstring = "O=[N+]([O-])c1cccc(-c2ccc(O)c(/C=C/c3cc(O)cc(O)c3)c2)c1"
measuredproperty = "inhibition"
numericresult = 75.4

[[record]]
structuresmilesstring = "Oc1cc(O)cc(/C=C/c2cc(-c3ccccc3)ccc2O)c1"
measuredproperty = "inhibition"
numericresult = 81.3

[[record]]
structuresmilesstring = "O=C(CCc1ccccc1)Nc1ccc(-c2ccc3cc(O)ccc3c2)cc1"
measuredproperty = "inhibition"
numericresult = 84.6

[[record]]
structuresmilesstring = "Oc1cc(O)cc(/C=C/c2ccc(O)c(-c3cccc(O)c3)c2)c1"
measuredproperty = "inhibition"
numericresult = 34.5

[[record]]
structuresmilesstring = "O=C(CCc1ccccc1)Nc1ccc(NC(=O)c2cc(O)cc(O)c2)cc1"
measuredproperty = "inhibition"
numericresult = 4.1

[[record]]
structuresmilesstring = "O=C(CCc1ccccc1)Nc1ccc(-c2nc3ccc(O)cc3s2)cc1"
measuredproperty = "inhibition"
numericresult = 7.5

[[record]]
structuresmilesstring = "O=C(/C=C/c1ccccc1)Nc1ccc(-c2cnc3cc(O)ccc3c2)cc1"
measuredproperty = "inhibition"
numericresult = 55.4


====

protocolDetails: Selectivity index, ratio of IC50 for human BEAS-2B cells to IC50 for human PC-3 cells
Format: toxicity
runConditions: BEAS-2B cells versus PC-3 cells, read-out: Ratio IC50
Below, each entry is listed alongside its reported selectivity ratio.
measuredProperty: selectivity ratio

[[record]]
structuresmilesstring = "O=C(/C=C/c1ccccc1)Nc1ccc(/C=C/c2cc(O)cc(O)c2)cc1"
result = "> 9.2"

[[record]]
structuresmilesstring = "O=C(CCc1ccccc1)Nc1ccc(-c2ccc3cc(O)ccc3c2)cc1"
result = "> 52.1"

[[record]]
structuresmilesstring = "O=C(/C=C/c1ccccc1)Nc1ccc(-c2ccc3cc(O)ccc3c2)cc1"
result = "> 28.1"


====

protocolDetails: Antiproliferative activity against human BEAS-2B cells incubated for 72 hrs by CCK8 assay
Type: toxicity, cell-based
measuredProperty: IC50 at 72 h (µM)

[[record]]
compound = "O=C(/C=C/c1ccccc1)Nc1ccc(-c2ccc3cc(O)ccc3c2)cc1"
valuemodifier = "="
numericresult = 26.9

[[record]]
compound = "O=C(/C=C/c1ccccc1)Nc1ccc(/C=C/c2cc(O)cc(O)c2)cc1"
valuemodifier = ">"
numericresult = 50

[[record]]
compound = "O=C(CCc1ccccc1)Nc1ccc(-c2ccc3cc(O)ccc3c2)cc1"
valuemodifier = "="
numericresult = 31.9

[[record]]
compound = "COc1cc([C@@H]2c3cc4c(cc3[C@@H](O[C@@H]3O[C@@H]5CO[C@@H](C)O[C@H]5[C@H](O)[C@H]3O)[C@H]3COC(=O)[C@H]23)OCO4)cc(OC)c1O [ETOPOSIDE]"
valuemodifier = "="
numericresult = 21


====

measuredOn: UniProt Q02880
Sequence (Q02880 whole entry): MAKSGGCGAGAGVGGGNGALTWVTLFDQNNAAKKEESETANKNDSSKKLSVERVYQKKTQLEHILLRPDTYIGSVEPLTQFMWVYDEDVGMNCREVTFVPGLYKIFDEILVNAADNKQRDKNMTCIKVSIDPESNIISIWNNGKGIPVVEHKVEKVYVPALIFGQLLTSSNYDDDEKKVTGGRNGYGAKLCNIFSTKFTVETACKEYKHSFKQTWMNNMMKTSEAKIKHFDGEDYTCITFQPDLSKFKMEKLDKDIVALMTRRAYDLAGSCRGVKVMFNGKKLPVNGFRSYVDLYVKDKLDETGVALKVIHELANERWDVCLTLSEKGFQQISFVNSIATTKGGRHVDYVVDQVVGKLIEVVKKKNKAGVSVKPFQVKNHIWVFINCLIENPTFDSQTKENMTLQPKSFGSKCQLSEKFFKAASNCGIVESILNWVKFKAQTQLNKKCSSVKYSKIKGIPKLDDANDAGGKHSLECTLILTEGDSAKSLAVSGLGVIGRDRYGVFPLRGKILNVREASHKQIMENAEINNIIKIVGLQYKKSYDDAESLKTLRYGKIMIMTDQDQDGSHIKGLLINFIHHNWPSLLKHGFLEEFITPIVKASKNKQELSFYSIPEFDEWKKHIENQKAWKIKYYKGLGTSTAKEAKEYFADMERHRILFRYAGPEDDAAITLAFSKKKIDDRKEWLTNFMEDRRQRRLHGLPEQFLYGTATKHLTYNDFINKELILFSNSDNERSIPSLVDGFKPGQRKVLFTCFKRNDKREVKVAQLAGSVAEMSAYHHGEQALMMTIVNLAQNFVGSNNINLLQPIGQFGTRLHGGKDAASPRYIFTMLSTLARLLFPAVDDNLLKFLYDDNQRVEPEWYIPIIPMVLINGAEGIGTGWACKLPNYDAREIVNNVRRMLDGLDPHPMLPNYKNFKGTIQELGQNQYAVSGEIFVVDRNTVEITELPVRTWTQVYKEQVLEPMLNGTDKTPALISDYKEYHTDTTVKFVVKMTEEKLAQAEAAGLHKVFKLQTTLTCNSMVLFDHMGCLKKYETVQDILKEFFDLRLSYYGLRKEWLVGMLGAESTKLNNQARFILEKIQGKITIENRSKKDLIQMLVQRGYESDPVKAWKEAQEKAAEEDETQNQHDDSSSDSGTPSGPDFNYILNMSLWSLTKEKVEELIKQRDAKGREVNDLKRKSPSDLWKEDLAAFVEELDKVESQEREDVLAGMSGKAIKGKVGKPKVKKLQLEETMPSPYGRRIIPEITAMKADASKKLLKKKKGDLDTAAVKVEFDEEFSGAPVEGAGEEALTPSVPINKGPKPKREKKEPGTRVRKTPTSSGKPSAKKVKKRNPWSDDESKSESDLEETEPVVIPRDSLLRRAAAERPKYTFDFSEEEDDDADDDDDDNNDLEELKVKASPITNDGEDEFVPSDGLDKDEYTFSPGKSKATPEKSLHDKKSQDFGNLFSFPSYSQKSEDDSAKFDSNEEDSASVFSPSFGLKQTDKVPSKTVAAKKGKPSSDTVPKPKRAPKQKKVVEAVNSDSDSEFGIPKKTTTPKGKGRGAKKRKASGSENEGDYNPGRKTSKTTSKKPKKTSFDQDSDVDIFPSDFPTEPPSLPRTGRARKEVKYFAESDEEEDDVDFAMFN
measuredProperty: IC50 (µM)

[[record]]
structuresmilesstring = "O=C(/C=C/c1ccccc1)Nc1ccc(-c2ccc3cc(O)ccc3c2)cc1"
measuredon = "UniProt Q02880"
measuredproperty = "IC50"
numericresult = 17.2

[[record]]
structuresmilesstring = "O=C(CCc1ccccc1)Nc1ccc(-c2ccc3cc(O)ccc3c2)cc1"
measuredon = "UniProt Q02880"
measuredproperty = "IC50"
numericresult = 10.1


====

protocolDetails: Selectivity index, ratio of IC50 for human HL-7702 cells to IC50 for human HeLa cells
Assay type: toxicity
runConditions: HL-7702 cells versus HeLa cells, read-out: Ratio IC50
Recorded selectivity ratio by entry
measuredProperty: selectivity ratio

[[record]]
structuresmilesstring = "O=C(/C=C/c1ccccc1)Nc1ccc(-c2ccc3cc(O)ccc3c2)cc1"
result = "> 28.1"

[[record]]
structuresmilesstring = "O=C(CCc1ccccc1)Nc1ccc(-c2ccc3cc(O)ccc3c2)cc1"
result = "> 52.1"

[[record]]
structuresmilesstring = "O=C(/C=C/c1ccccc1)Nc1ccc(/C=C/c2cc(O)cc(O)c2)cc1"
result = "> 9.2"


====

System: HepG2
protocolDetails: Antiproliferative activity against human HepG2 cells incubated for 72 hrs by CCK8 assay
Type: functional, cell-based
runConditions: hepg2
measuredProperty: IC50 (nM)

[[record]]
structuresmilesstring = "O=C(/C=C/c1ccccc1)Nc1ccc(/C=C/c2cc(O)cc(O)c2)cc1"
numericresult = 2900


====

measuredOn: DNA topoisomerase 2-alpha (Homo sapiens, UniProt P11388)
protocolDetails: Inhibition of human topoisomerase 2-alpha assessed as reduction in relaxation of pBR322 DNA at 25 uM measured after 30 mins by agarose gel electrophoresis method relative to control
measuredProperty: inhibition (%)

[[record]]
structuresmilesstring = "NC(=O)/C=C/c1ccc(O)c(/C=C/c2cc(O)cc(O)c2)c1"
numericresult = 18.4

[[record]]
structuresmilesstring = "CN(C)C(=O)/C=C/c1ccc(/C=C/c2cc(O)cc(O)c2)cc1"
numericresult = 0.1

[[record]]
structuresmilesstring = "O=C(/C=C/c1ccccc1)Nc1ccc(O)c(/C=C/c2cc(O)cc(O)c2)c1"
numericresult = 61.5

[[record]]
structuresmilesstring = "Oc1ccc(-c2cc(/C=C/c3cc(O)cc(O)c3)ccc2O)cc1"
numericresult = 17.6

[[record]]
structuresmilesstring = "O=C(CCc1ccccc1)Nc1ccc(/C=C/c2cc(O)cc(O)c2)cc1"
numericresult = 16.4

[[record]]
structuresmilesstring = "Oc1ccc(-c2ccc(/C=C/c3cc(O)cc(O)c3)cc2)cc1"
numericresult = 57.1


====

protocolDetails: Selectivity index, ratio of IC50 for human HL-7702 cells to IC50 for human A549 cells
Format: toxicity
runConditions: HL-7702 cells versus A549 cells, read-out: Ratio IC50
measuredProperty: selectivity ratio

[[record]]
structuresmilesstring = "O=C(/C=C/c1ccccc1)Nc1ccc(/C=C/c2cc(O)cc(O)c2)cc1"
result = "> 9.2"

[[record]]
structuresmilesstring = "O=C(CCc1ccccc1)Nc1ccc(-c2ccc3cc(O)ccc3c2)cc1"
result = "> 52.1"

[[record]]
structuresmilesstring = "O=C(/C=C/c1ccccc1)Nc1ccc(-c2ccc3cc(O)ccc3c2)cc1"
result = "> 28.1"


====

protocolDetails: Selectivity index, ratio of IC50 for human HL-7702 cells to IC50 for human MDA-MB-231 cells
Assay type: toxicity
runConditions: HL-7702 cells versus MDA-MB-231 cells, read-out: Ratio IC50
selectivity ratio listing for selected compounds.
measuredProperty: selectivity ratio

[[record]]
structuresmilesstring = "O=C(CCc1ccccc1)Nc1ccc(-c2ccc3cc(O)ccc3c2)cc1"
measuredproperty = "selectivity ratio"
result = "> 52.1"

[[record]]
structuresmilesstring = "O=C(/C=C/c1ccccc1)Nc1ccc(-c2ccc3cc(O)ccc3c2)cc1"
measuredproperty = "selectivity ratio"
result = "> 28.1"

[[record]]
structuresmilesstring = "O=C(/C=C/c1ccccc1)Nc1ccc(/C=C/c2cc(O)cc(O)c2)cc1"
measuredproperty = "selectivity ratio"
result = "> 9.2"


====

measuredOn: DNA topoisomerase 2-alpha (Homo sapiens, UniProt P11388)
protocolDetails: Inhibition of human topoisomerase 2-alpha assessed as reduction in relaxation of pBR322 DNA at 25 uM measured after 30 mins by agarose gel electrophoresis method relative to control
Below, each of the molecules is paired with its reported inhibition value.
measuredProperty: inhibition (%)

[[record]]
structuresmilesstring = "CCCNC(=O)/C=C/c1ccc(/C=C/c2cc(O)cc(O)c2)cc1"
numericresult = 26.8

[[record]]
structuresmilesstring = "Oc1cc(O)cc(/C=C/c2cc(-c3ccoc3)ccc2O)c1"
numericresult = 21.3

[[record]]
structuresmilesstring = "O=C(/C=C/c1ccccc1)Nc1ccc(-c2nc3ccc(O)cc3s2)cc1"
numericresult = 43.2

[[record]]
structuresmilesstring = "Oc1cc(O)cc(/C=C/c2ccc(-c3ccsc3)cc2)c1"
numericresult = 63.2

[[record]]
structuresmilesstring = "O=C(/C=C/c1cc(/C=C/c2cc(O)cc(O)c2)ccc1O)N1CCCCC1"
numericresult = 7.1

[[record]]
structuresmilesstring = "O=C(/C=C/c1ccc(/C=C/c2cc(O)cc(O)c2)cc1)N1CCCCC1"
numericresult = 6.9

[[record]]
structuresmilesstring = "Oc1cc(O)cc(/C=C/c2ccc(-c3cccc(O)c3)cc2)c1"
numericresult = 63.2

[[record]]
structuresmilesstring = "COc1ccc2nc(-c3ccc(NC(=O)/C=C/c4ccccc4)cc3)sc2c1"
numericresult = 0

[[record]]
structuresmilesstring = "Oc1cc(O)cc(/C=C/c2ccc(-c3ccccc3)cc2)c1"
numericresult = 12.2

[[record]]
structuresmilesstring = "Oc1ccc(-c2ccc(O)c(/C=C/c3cc(O)cc(O)c3)c2)cc1"
numericresult = 75.4

[[record]]
structuresmilesstring = "O=[N+]([O-])c1cccc(-c2ccc(/C=C/c3cc(O)cc(O)c3)cc2)c1"
numericresult = 55.3

[[record]]
structuresmilesstring = "CNC(=O)/C=C/c1ccc(O)c(/C=C/c2cc(O)cc(O)c2)c1"
numericresult = 1.2

[[record]]
structuresmilesstring = "C/C=C/C(=O)Nc1ccc(O)c(/C=C/c2cc(O)cc(O)c2)c1"
numericresult = 0.6

[[record]]
structuresmilesstring = "Oc1cc(O)cc(/C=C/c2cc(-c3cccc(O)c3)ccc2O)c1"
numericresult = 79.3

